- tested-on: T1, DMC1 (untagged full-length human DMC1, wild type) (human, UniProt Q14565 1-340)
- T1 sequence (looked up): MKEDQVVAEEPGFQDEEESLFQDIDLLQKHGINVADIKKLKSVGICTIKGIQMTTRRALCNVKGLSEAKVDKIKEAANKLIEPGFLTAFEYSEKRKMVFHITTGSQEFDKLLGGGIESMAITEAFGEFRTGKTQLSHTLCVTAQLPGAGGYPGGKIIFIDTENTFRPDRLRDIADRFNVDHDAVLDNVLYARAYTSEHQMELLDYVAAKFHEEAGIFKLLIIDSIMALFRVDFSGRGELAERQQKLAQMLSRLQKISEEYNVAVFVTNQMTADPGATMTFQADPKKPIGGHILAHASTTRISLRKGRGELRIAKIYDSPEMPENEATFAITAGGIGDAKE
- assay-overview: ITC
pKd: −log10 of the molar value.
In this section we review reported pKd values for a set of binders.

{"columns": ["binder", "pKd"],
 "data": [
  ["BRCA2 F2s3 (2379–2433), purified recombinant peptide (domain or fragment, human, UniProt P51587 2379-2433, looked up) GHPFYQVSATRNEKMRHLITTGRPTKVFVPPFKTKSHFHRVEQCVRNINLEENRQ", 5.52],
  ["Ac-TTGRPTKVFVPPFKTKSHFH-NH2 [BRCA2 F2s6 (2398–2417) synthetic peptide]", 5.47]
]}
